Reference for the values: the supplement of paper PMC10126150

# Tested on: ATP;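 further: ATP exposure 15 min at 22 °C before imaging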
# Test Name: switch fluorescence ratio, 500 uM ATP over buffer (Cy3 cluster intensity, sum of 5 cycles each) (fold (ratio)); higher = stronger signal-on switching upon ATP binding; sequences stand for … in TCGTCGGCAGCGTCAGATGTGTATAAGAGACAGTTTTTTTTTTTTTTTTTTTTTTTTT…TC
# Condition Parameters: aptamer strand: ATP DNA aptamer (quencher-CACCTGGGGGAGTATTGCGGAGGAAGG + anchor), 100 nM annealed; ATP concentration: 500 uM
Recorded switch fluorescence ratio, one value per entry.
Quantity Kind: switch fluorescence ratio

TTCAGCGATG 1.02
GACGCGTCTC 1.03
ATACTGAGTT 1.05
ACGTTGATGG 0.988
TTTACACGAT 1.01
ATTCAACGGG 1.04
GTGGGAATAT 1
AAGGATGTAA 0.995
AGTGGGAAAT 0.994
TAGGTTTTTT 0.989
CGTGTTTTTC 0.996
AATGGGCAAG 1.05
AGCAGGACCC 1.23
AGGGGGTCTG 0.968
GGGAATTGGG 0.997
GAGTTTAATC 1
AAAGTACTCG 1.12
TTCAGTTTCG 1.01
TTTTGACATT 1.05
